- Test system: UACC-257 melanoma
- assay_protocol: NCI tumour cell line growth inhibition, 48 h
measured_property: TGI (µM)
Quick reminder: number only, in µM, skip the unit.

Cc1c2cnccc2c(C)c2c1c1ccccc1n2CCOC(=O)c1ccccc1 ... 42
O=C(CCCc1ccc(N(CCCl)CCCl)cc1)NCc1ccccc1 ... 55.5

Kindly consider the entry below.
// output TGI; input "CCN(Cc1ccc(OC)cc1)c1ccc(CO)c(Cl)c1" ; system UACC-257 melanoma
0.312

###

- System: HS 578T breast
- assay_protocol: NCI tumour cell line growth inhibition, 48 h
measured_property: TGI

COc1ccc(/C=C/C(=O)c2cc(OC)cc(OC)c2)cc1 ... 15.1 µM
CCN(Cc1ccc(OC)cc1)c1ccc(CO)c(Cl)c1 ... > 86.1 µM
O=[N+]([O-])c1ccc(C2=NCCO2)cc1 ... > 100 µM
CSC(=S)CC(O)[C@@H]1CC2c3ccccc3C1c1ccccc12 (some centres undefined) ... 80.2 µM
C=C1c2nc3ccccc3n2C=C(c2ccc(OC)cc2)N1c1ccc(OCCN2CCCCC2)cc1 ... > 100 µM

Tell me its TGI given "Cc1cn([C@@H]2O[C@H](CO[Si](C)(C)C(C)(C)C)[C@]3(O[C@H]3C(=O)NO)[C@H]2O[Si](C)(C)C(C)(C)C)c(=O)[nH]c1=O" as the entry.
4.23 µM

Tell me its TGI given "NS(=O)(=O)c1ccc(NC(=S)NC(=O)Nc2ccc(Cl)c(Cl)c2)cc1" as the entry.
59.3 µM

Tell me its TGI given "ClC1=C(Cl)C(Cl)(C2(Cl)C(Cl)=C(Cl)C(Cl)=C2Cl)C(Cl)=C1Cl" as the entry.
6.43 µM

Tell me its TGI given CCCCCCCCCCCCCCCCOCC(COP(=O)(O)OCC1OC(n2cc(CC)c(=O)[nH]c2=O)CC1O)OC(=O)CCCCCCCCCCCCCCC (centres undefined) as the entry.
> 100 µM

Ref: PubChem BioAssay (NCI)
